Items are presented alongside their recorded IC50.
Test system: HepG2 cells
Test: Cytotoxicity assay using HepG2 cells

# example entries with known answers
Prompt: Query (compound): CN(C)Cc1ccn2c(-c3ccnc(N)n3)c(-c3ccc(F)c(NS(C)(=O)=O)c3)nc2c1 ; field requested: IC50
Response: > 20 µM

Prompt: Query (compound): CN(C)Cc1ccn2c(-c3ccnc(NCC4CC4)n3)c(-c3cccc(S(C)(=O)=O)c3)nc2c1 ; field requested: IC50
Response: > 20 µM

Prompt: Query (compound): CN(C)Cc1ccn2c(-c3ccnc(N)n3)c(-c3cccc(NS(C)(=O)=O)c3)nc2c1 ; field requested: IC50
Response: > 20 µM

Prompt: Query (compound): CN(C)Cc1ccn2c(-c3ccnc(N)n3)c(-c3cccc(S(C)(=O)=O)c3)nc2c1 ; field requested: IC50
Response: > 20 µM

Then there is this compound:
Prompt: Query (compound): Cc1cn2c(-c3ccnc(Nc4ccc(N5CCNCC5)cc4)n3)c(-c3ccc(F)cc3)nc2cc1CN(C)C ; field requested: IC50
Response: 1.9 µM

###

Biological target: PfPKG (Plasmodium falciparum)
Sequence (Q8I719 whole entry): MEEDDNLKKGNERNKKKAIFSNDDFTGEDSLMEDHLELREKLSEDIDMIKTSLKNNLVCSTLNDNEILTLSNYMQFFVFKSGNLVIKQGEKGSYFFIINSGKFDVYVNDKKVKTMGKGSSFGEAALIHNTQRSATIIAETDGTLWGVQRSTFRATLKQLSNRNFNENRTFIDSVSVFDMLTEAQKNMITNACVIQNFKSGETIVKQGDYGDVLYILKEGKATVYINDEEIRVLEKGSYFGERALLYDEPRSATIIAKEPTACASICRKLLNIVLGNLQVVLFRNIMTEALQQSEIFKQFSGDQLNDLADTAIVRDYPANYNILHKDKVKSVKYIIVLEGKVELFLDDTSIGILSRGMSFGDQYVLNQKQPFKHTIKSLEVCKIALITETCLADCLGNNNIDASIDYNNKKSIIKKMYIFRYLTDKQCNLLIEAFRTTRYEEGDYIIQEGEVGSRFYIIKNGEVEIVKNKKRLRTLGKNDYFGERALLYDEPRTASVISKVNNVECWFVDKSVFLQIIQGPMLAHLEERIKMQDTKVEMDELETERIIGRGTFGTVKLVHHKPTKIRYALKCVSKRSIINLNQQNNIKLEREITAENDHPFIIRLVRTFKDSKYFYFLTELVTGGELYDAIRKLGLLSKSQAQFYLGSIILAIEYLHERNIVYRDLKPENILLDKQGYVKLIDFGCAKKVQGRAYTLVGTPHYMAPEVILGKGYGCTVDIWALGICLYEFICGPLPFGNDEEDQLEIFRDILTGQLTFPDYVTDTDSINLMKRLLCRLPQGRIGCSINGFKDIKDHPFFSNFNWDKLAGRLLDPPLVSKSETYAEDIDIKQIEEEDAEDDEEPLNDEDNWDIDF
Assay: Microfluidic mobility shift kinase assay, recombinant PfPKG wild type
reportedMetric: pIC50
API: returns pIC50 as number; meaning -log10 of concentration in mol/L.

Prompt: GET /values?readout=pIC50&system=PfPKG (Plasmodium falciparum)&item= CN(C)Cc1ccn2c(-c3ccnc(N)n3)c(-c3ccc(F)cc3)nc2c1 [ML1, reference compound]
Response: 8.51

###

Test: physchem
Settings: pH 7.4
Protocol: Compound mlm hlm mLogD PAMPA HepG2 name (%rem) (%rem) (nm/s) (IC50 µM) Supplementary Table 2. Compound Properties. MLM, HLM, mLogD and PAMPA . mlm (%rem): % of compound remaining after 30 minutes’ incubation with mouse liver microsomes; hlm (%rem): % of compound remaining after 40 minutes’ incubation with human liver microsomes; mLogD: measured LogD at pH 7.4; PAMPA: parallel artificial membrane permeability assay; HepG2: Cytotoxicity assay using HepG2 cells; n.t.: not tested.
reportedMetric: logD
Give the figure by itself; no unit, no explanation.

Prompt: Query (compound): Cc1cn2c(-c3ccnc(NCC4CC4)n3)c(-c3ccc(F)c(NS(C)(=O)=O)c3)nc2cc1CN(C)C ; field requested: logD
Response: 2.8

###

Target: PfPKG T618Q (Plasmodium falciparum, UniProt Q8I719, T618Q)
Sequence (Q8I719 whole entry T618Q): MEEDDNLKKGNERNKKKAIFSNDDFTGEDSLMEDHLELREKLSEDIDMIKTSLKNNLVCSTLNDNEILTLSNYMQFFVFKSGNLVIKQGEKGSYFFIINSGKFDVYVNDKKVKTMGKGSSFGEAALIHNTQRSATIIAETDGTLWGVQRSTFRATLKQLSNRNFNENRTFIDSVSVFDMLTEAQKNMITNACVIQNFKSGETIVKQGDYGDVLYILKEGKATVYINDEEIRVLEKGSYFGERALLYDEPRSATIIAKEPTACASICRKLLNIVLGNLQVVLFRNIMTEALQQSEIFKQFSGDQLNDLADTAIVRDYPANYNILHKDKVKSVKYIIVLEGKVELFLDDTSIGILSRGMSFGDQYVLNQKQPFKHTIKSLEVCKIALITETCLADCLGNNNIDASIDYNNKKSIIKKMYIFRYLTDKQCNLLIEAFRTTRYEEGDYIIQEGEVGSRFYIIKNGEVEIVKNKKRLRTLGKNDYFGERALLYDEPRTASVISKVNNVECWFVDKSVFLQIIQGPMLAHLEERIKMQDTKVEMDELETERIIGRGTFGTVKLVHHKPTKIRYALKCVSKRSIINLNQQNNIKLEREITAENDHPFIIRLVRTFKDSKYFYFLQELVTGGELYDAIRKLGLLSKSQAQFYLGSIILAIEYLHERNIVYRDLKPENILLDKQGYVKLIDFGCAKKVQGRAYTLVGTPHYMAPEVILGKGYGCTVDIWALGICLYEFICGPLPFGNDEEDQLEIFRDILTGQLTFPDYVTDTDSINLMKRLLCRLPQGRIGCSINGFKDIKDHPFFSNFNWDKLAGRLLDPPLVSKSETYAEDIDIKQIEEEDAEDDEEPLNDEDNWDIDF
Assay: Microfluidic mobility shift kinase assay, recombinant PfPKG T618Q gatekeeper mutant
reportedMetric: IC50 (µM)
Answer in µM, number only, no unit symbol.

Prompt: GET /values?readout=IC50&system=PfPKG T618Q (Plasmodium falciparum, UniProt Q8I719, T618Q)&item= CN(C)Cc1ccn2c(-c3ccnc(N)n3)c(-c3ccc(F)cc3)nc2c1 [ML1, reference compound]
Response: 8.44

###

Test: Cytotoxicity assay (ATP depletion), MCF7
Type: cell-based
Details: human, MCF7 breast adenocarcinoma cells, 0.001–10 µM, n = 6
reportedMetric: EC50 at 48 h

Prompt: Query (molecule): Cc1cn2c(-c3ccnc(NCC4CC4)n3)c(-c3ccc(F)c(NS(C)(=O)=O)c3)nc2cc1CN(C)C ; field requested: EC50 at 48 h
Response: > 10 µM

###

Assay: Plasma levels in satellite groups of mice, P. berghei experiment
Format: in vivo, mouse
Conditions: BALB/c, mouse, in vivo, po, 25 mg/kg
reportedMetric: half-life (min)
Answer in min, number only, no unit symbol.

Prompt: Query (molecule): Cc1cn2c(-c3ccnc(NCC4CC4)n3)c(-c3ccc(F)c(NS(C)(=O)=O)c3)nc2cc1CN(C)C [ML10] ; field requested: half-life
Response: 48
